- Measured Target: T1, human CEA on cells (MKN45, LOVO, NCI-H2122, LS174T, CT26/CEA) (human, UniProt P06731 35-685)
- T1 sequence: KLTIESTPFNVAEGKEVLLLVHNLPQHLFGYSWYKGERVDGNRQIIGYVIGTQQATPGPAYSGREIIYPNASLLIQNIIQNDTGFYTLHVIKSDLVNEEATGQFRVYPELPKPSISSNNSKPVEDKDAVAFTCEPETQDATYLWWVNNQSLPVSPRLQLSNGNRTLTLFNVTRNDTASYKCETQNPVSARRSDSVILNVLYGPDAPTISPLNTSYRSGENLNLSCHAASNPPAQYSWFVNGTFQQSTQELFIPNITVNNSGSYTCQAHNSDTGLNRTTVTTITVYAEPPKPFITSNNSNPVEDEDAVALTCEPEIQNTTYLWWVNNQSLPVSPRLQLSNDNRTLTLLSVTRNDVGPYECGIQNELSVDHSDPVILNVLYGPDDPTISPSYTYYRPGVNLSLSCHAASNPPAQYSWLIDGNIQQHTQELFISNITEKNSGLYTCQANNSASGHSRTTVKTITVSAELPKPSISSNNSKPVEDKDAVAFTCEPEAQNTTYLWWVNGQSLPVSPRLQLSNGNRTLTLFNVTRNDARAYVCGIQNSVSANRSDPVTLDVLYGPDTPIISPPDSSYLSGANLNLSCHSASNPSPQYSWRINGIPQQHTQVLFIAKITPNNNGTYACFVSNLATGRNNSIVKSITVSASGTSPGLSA
- Method Summary: cell-based or functional assay
Recorded Metric: EC50, cell killing of LS174T cells
Please report the result as a number followed by the unit.

Which value of EC50, cell killing of LS174T cells has been reported for BGA9962 (antibody, human IgG1, kappa, V domains shown, linker-payload conjugated after reduction of the antibody, DAR 8 (structure only as a drawing in Table 18)) VH: QVQLVQSGAEVKKPGASVKVSCKASGYIFTSYYLHWVRQAPGQGLEWIGYINPQTGKTSYAQKFQGRVTMTRDTSTSTVYMELSSLRSEDTAVYYCAREYGNYNYPLDYWGQGTLVTVSS VL: DIQMTQSPSSLSASVGDRVTITCRASENQYGYLAWYQQKPGKVPKLLIYNYKNLVEGVPSRFSGSGSGTDFTLTISSLQPEDVATYYCQHHLGTPYTFGQGTKVEIKR in the records?
830 pM

Which measured EC50, cell killing of LS174T cells value corresponds to BGA7413 (antibody, human IgG1, kappa, V domains shown, linker-payload conjugated after reduction of the antibody, DAR 8 profile (structure only as a drawing in Table 18)) VH: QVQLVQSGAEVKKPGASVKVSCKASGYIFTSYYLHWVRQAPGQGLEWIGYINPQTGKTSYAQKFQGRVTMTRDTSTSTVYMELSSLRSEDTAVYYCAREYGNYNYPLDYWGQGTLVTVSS VL: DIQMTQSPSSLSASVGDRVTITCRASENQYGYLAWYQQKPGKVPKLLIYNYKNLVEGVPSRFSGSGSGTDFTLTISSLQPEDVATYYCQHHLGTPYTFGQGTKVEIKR ?
880 pM

Can you share its EC50, cell killing of LS174T cells? I mean this binder: BGA8357 (antibody, human IgG1, kappa, V domains shown, linker-payload conjugated after reduction of the antibody, DAR 8 profile (structure only as a drawing in Table 18)) VH: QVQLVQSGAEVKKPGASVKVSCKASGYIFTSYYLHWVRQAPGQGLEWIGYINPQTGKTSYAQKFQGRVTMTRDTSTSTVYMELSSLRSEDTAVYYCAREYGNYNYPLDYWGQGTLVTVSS VL: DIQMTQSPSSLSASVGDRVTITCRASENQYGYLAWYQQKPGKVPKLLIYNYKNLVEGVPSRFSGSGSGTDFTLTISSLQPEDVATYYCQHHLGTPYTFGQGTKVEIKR
670 pM

So what's the measured EC50, cell killing of LS174T cells for this one? BGA0084 (antibody, human IgG1, kappa, V domains shown, linker-payload conjugated after reduction of the antibody, DAR 8 profile (structure only as a drawing in Table 18)) VH: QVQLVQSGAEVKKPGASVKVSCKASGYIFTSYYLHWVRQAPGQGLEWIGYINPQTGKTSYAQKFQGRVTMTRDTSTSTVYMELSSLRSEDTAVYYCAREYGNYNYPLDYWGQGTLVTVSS VL: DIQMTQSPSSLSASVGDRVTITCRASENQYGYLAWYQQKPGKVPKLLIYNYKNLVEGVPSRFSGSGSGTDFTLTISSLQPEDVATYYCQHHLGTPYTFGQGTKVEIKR
850 pM

Given the entry BGA2490 (antibody, human IgG1, kappa, V domains shown, linker-payload conjugated after reduction of the antibody, DAR 8 profile (structure only as a drawing in Table 18)) VH: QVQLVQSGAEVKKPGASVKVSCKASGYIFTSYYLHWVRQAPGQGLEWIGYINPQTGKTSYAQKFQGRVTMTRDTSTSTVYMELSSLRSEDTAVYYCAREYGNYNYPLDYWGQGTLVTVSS VL: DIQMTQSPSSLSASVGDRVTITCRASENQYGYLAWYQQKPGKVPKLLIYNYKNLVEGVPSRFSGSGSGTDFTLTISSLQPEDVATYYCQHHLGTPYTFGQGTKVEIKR , report its measured EC50, cell killing of LS174T cells.
760 pM

Request the reported EC50, cell killing of LS174T cells associated with BGA2588 (BGA5384 conjugated with DXD) (antibody, human IgG1, kappa, V domains shown, DXD linker-payload conjugated after reduction of the antibody, DAR 8 profile (structure only as a drawing in Table 18)) VH: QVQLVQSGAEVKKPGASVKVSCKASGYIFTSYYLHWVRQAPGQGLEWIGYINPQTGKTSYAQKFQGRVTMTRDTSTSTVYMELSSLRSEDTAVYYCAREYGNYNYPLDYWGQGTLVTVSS VL: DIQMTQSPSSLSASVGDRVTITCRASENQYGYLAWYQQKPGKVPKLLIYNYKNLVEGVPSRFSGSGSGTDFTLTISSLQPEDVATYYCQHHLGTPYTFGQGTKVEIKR
1120 pM
